- TEST_DETAILS: recombinant barcode read abundance after kanamycin selection (control-corrected) (log10(CPM+1)); higher = more efficient recombination; sequences stand for … in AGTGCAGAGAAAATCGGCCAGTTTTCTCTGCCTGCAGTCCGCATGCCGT…ATTTATGCAGCGGACTGCCTTTCTCCCAAAGTGATAAACCGGACAGTATCATGGACCGGTTTTCCCGGTAATCCGTATTTGCAAGGTTGGTTTCACT; site = the 11-nt target
ENDPOINT: recombinant barcode read abundance (log10)
The response must contain the number and no unit.

The sequence GGGCGTGCTTGGGTTCTAACCTGTTGCCTAC [GGGCGTGCTAG_LTGcore_CT_RTGcore_GT] (site GGGCGTGCTAG) (LTG core: CT, RTG core: GT) showed recombinant barcode read abundance (log10) equal to 0.107

Entry AAACAGTTGTGGGTTCTAACCTGTTGCCTCA [AAACAGTCTAG_LTGcore_TG_RTGcore_TG] (site AAACAGTCTAG) (LTG core: TG, RTG core: TG) ; recombinant barcode read abundance (log10) = 0.0424

In plain terms, AGTCTTACTTGGGTTCTAACCTGTTGCCAGG [AGTCTTACTTG_LTGcore_CT_RTGcore_CC] (site AGTCTTACTTG) (LTG core: CT, RTG core: CC) has a documented recombinant barcode read abundance (log10) of 0.196

Documented recombinant barcode read abundance (log10) of GGGAGCCCTTGGGTTCTAACCTGTTGCTGTC [GGGAGCCCTCA_LTGcore_CT_RTGcore_GA] (site GGGAGCCCTCA) (LTG core: CT, RTG core: GA) : 0.0409

So for GCGCGACCTTGGGTTCTAACCTGTTGCTTGG [GCGCGACCTAA_LTGcore_CT_RTGcore_CC] (site GCGCGACCTAA) (LTG core: CT, RTG core: CC) , the logged recombinant barcode read abundance (log10) turned out to be 0

In plain terms, ATGTCCCCTTGGGTTCTAACCTGTTGCTCTC [ATGTCCCCTGA_LTGcore_CT_RTGcore_GA] (site ATGTCCCCTGA) (LTG core: CT, RTG core: GA) has a documented recombinant barcode read abundance (log10) of 0.0163

Quick note, recombinant barcode read abundance (log10) for TCTACCCATTGGGTTCTAACCTGTTGCTGAG [TCTACCCCTCA_LTGcore_AT_RTGcore_CT] (site TCTACCCCTCA) (LTG core: AT, RTG core: CT) landed at 0.331

Quick note, recombinant barcode read abundance (log10) for GGGCGGAGGTGGGTTCTAACCTGTTGCGGCC [GGGCGGACTCC_LTGcore_GG_RTGcore_GG] (site GGGCGGACTCC) (LTG core: GG, RTG core: GG) landed at 0.502

Kindly note the recorded recombinant barcode read abundance (log10) for AAACAGTCTTGGGTTCTAACCTGTTGCCTCC [AAACAGTCTAG_LTGcore_CT_RTGcore_GG] (site AAACAGTCTAG) (LTG core: CT, RTG core: GG) , which is 1.4

The sequence identified as TAAGAATACTGGGTTCTAACCTGTTGCCTAG [TAAGAATCTAG_LTGcore_AC_RTGcore_CT] (site TAAGAATCTAG) (LTG core: AC, RTG core: CT) registered its recombinant barcode read abundance (log10) at 0.0833

Quick note, recombinant barcode read abundance (log10) for CGGTCCCCTTGGGTTCTAACCTGTTGCCAAG [CGGTCCCCTTG_LTGcore_CT_RTGcore_CT] (site CGGTCCCCTTG) (LTG core: CT, RTG core: CT) landed at 1.32
